Values compiled from ChEMBL document CHEMBL6109129.

- TEST: Octanol/aqueous buffer distribution coefficient, log D of the compound at pH 7.4 incubated for 4 hrs under shaking condition by HPLC analysis
- Assay type: physicochemical
MEASURE: logD at 4 h
Answers are plain numbers.

Prompt: Reported logD at 4 h for COc1ccc(Cl)cc1-c1c(C(=O)O)[nH]c2c1CCc1ccccc1-2 : what is it?
Completion: 2.58

====

- TEST: Cytotoxicity in HEK293 cells assessed as inhibition of cell growth measured after 24 hrs by MTT assay
- Type: toxicity, cell-based
- EXPERIMENTAL_CONDITIONS: human
MEASURE: IC50 at 24 h

Prompt: Reported IC50 at 24 h for COc1ccc(Cl)cc1-c1c(C(=O)O)[nH]c2c1CCc1ccccc1-2 : what is it?
Completion: > 200 µM

====

- TEST: Inhibition of IMP-1 (unknown origin) using FC5 as substrate preincubated for 10 mins followed by substrate addition and measured immediately by fluorescence based analysis
- Set-up: species or system Bacteria
pIC50: −log10 of the molar value.
Param threshold (6) applies to pIC50; output Satisfied when value >= threshold, Not satisfied when value < threshold.

Prompt: Can O=C(O)c1[nH]c2c(c1-c1ccc(Cl)cc1)CCc1ccccc1-2 be said to have pIC50 at or above 6?
Completion: Not satisfied

---
Prompt: Can O=C(O)c1[nH]c2c(c1-c1ccncc1)CCc1ccccc1-2 be said to have pIC50 at or above 6?
Completion: Not satisfied

Prompt: Can COc1cc(F)ccc1-c1c(C(=O)O)[nH]c2c1CCc1ccccc1-2 be said to have pIC50 at or above 6?
Completion: Not satisfied

Prompt: Can COc1ccc(F)cc1-c1c(C(=O)O)[nH]c2c1CCc1ccccc1-2 be said to have pIC50 at or above 6?
Completion: Satisfied

Prompt: Can O=C(O)c1ccccn1 be said to have pIC50 at or above 6?
Completion: Not satisfied

Prompt: Can O=C(O)c1[nH]c2c(c1-c1ccc(F)c(F)c1)CCc1ccccc1-2 be said to have pIC50 at or above 6?
Completion: Not satisfied

====

- TEST: Kinetic solubility of the compound in PBS buffer at pH 7.4 measured after 24 hrs by HPLC analysis
- Type: physicochemical
- EXPERIMENTAL_CONDITIONS: read-out: Kinetic_solubility
MEASURE: solubility kinetic at 24 h (µg/mL)
Give bare numbers, in µg/mL.

Prompt: Reported solubility kinetic at 24 h for COc1ccc(Cl)cc1-c1c(C(=O)O)[nH]c2c1CCc1ccccc1-2 : what is it?
Completion: 19.7

====

- TARGET_OR_TEST_SYSTEM: Metallo-beta-lactamase type 2 (Bacteria, UniProt C7C422)
- Sequence (C7C422 whole entry, the tested form may be a part): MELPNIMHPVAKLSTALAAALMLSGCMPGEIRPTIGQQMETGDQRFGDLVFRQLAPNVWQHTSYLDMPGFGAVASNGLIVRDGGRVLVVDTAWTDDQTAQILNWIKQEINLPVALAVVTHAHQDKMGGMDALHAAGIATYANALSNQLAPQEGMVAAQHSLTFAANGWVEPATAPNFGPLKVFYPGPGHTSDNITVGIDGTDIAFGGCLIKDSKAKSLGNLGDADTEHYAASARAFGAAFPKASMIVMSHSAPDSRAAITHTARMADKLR
- TEST: Inhibition of N-terminal truncated NDM1 (1 to 49N residues) (unknown origin) extracted from Escherichia coli BL21(DE3) cells using FC5 as substrate preincubated for 10 mins followed by substrate addition and measured immediately by fluorescence based analysis
MEASURE: pIC50
One number for each entry, as −log10 of the molar value.

Look over these answered cases.
Prompt: Reported pIC50 for Cc1cc(C)cc(-c2c(C(=O)O)[nH]c3c2CCc2ccccc2-3)c1 : what is it?
Completion: 8.33

Prompt: Reported pIC50 for COc1cc(F)cc(-c2c(C(=O)O)[nH]c3c2CCc2ccccc2-3)c1 : what is it?
Completion: 8.17

Prompt: Reported pIC50 for O=C(O)c1cc2c([nH]1)-c1ccccc1CC2 : what is it?
Completion: 5.09

Prompt: Reported pIC50 for O=C(O)c1[nH]c2c(c1-c1cccc(F)c1)CCc1ccccc1-2 : what is it?
Completion: 8.09

Prompt: Reported pIC50 for O=C(O)c1[nH]c2c(c1-c1cc(Cl)cc(Cl)c1)CCc1ccccc1-2 : what is it?
Completion: 8.10

Return reported pIC50 values for all items listed beneath this line.
1. O=C(O)c1[nH]c2c(c1-c1cccc(Cl)c1Cl)CCc1ccccc1-2
2. COc1ccc(-c2c(C(=O)O)[nH]c3c2CCc2ccccc2-3)cc1
3. O=C(O)c1[nH]c2c(c1-c1cncc(F)c1)CCc1ccccc1-2
4. CC(C)(C)c1ccc(-c2c(C(=O)O)[nH]c3c2CCc2ccccc2-3)cc1
5. O=C(O)c1[nH]c2c(c1-c1ccncc1)CCc1ccccc1-2
6. O=C(O)c1[nH]c2c(c1-c1ccccc1Cl)CCc1ccccc1-2

Completion:
7.82
6.04
7.21
7.82
7.15
8.51

Return reported pIC50 values for all items listed beneath this line.
1. O=C(O)c1[nH]c2c(c1-c1cc(F)cc(F)c1)CCc1ccccc1-2
2. O=C(O)c1[nH]c2c(c1-c1ccc(Cl)cc1Cl)CCc1ccccc1-2
3. O=C(O)c1[nH]c2c(c1-c1ccccc1)CCc1ccccc1-2
4. O=C(O)c1[nH]c2c(c1-c1ccccc1F)CCc1ccccc1-2
5. COc1cc(OC)cc(-c2c(C(=O)O)[nH]c3c2CCc2ccccc2-3)c1
6. O=C(O)c1[nH]c2c(c1-c1cc(F)cc(Cl)c1)CCc1ccccc1-2
7. O=C(O)c1[nH]c2c(c1-c1ccc(F)c(F)c1)CCc1ccccc1-2

Completion:
1: 7.33; 2: 8.70; 3: 6.95; 4: 7.24; 5: 8.30; 6: 8.72; 7: 8.54

====

- TEST: Inhibition of IMP-1 (unknown origin) using FC5 as substrate preincubated for 10 mins followed by substrate addition and measured immediately by fluorescence based analysis
- Parameters: species or system Bacteria
The class of a record is decided solely by its measured IC50; consult group 1 = under 2 µM, group 2 = from 2 µM up to 8 µM, group 3 = 8 µM and over

Use the examples below as a reference point.
Prompt: Tag the class for Cc1cc(C)cc(-c2c(C(=O)O)[nH]c3c2CCc2ccccc2-3)c1
Completion: group 1

Prompt: Tag the class for Cc1cc(C(=O)O)[nH]c1-c1ccccc1
Completion: group 3

Prompt: Tag the class for O=C(O)c1[nH]c2c(c1-c1cncc(Cl)c1)CCc1ccccc1-2
Completion: group 1

Prompt: Tag the class for O=C(O)c1[nH]c2c(c1-c1cc(F)cc(Cl)c1)CCc1ccccc1-2
Completion: group 1

Prompt: Tag the class for COc1cc(OC)cc(-c2c(C(=O)O)[nH]c3c2CCc2ccccc2-3)c1
Completion: group 1

---
Prompt: Tag the class for O=C(O)c1[nH]c2c(c1-c1cccc(Cl)c1Cl)CCc1ccccc1-2
Completion: group 3

Prompt: Tag the class for O=C(O)c1[nH]c2c(c1-c1cc(F)cc(F)c1)CCc1ccccc1-2
Completion: group 2

Prompt: Tag the class for COc1cc(Cl)cc(-c2c(C(=O)O)[nH]c3c2CCc2ccccc2-3)c1
Completion: group 1

Prompt: Tag the class for O=C(O)c1[nH]c2c(c1-c1cccc(F)c1)CCc1ccccc1-2
Completion: group 2

====

- TEST: Inhibition of IMP-1 (unknown origin) using FC5 as substrate preincubated for 10 mins followed by substrate addition and measured immediately by fluorescence based analysis
- Parameters: species or system Bacteria
MEASURE: log10 of IC50 (log10 of the value in µM)
# log10 transformed; quantity=IC50; unit=µM

Look over these answered cases.
Prompt: Reported log10 of IC50 for O=C(O)c1[nH]c2c(c1-c1ccccc1F)CCc1ccccc1-2 : what is it?
Completion: 0.36

Prompt: Reported log10 of IC50 for O=C(O)c1[nH]c2c(c1-c1cccc(Cl)c1)CCc1ccccc1-2 : what is it?
Completion: -0.46

Prompt: Reported log10 of IC50 for O=C(O)c1cc2c([nH]1)-c1ccccc1CC2 : what is it?
Completion: 1.36

Prompt: Reported log10 of IC50 for CC(C)(C)c1ccc(-c2c(C(=O)O)[nH]c3c2CCc2ccccc2-3)cc1 : what is it?
Completion: 0.93

Prompt: Reported log10 of IC50 for COc1cc(F)cc(-c2c(C(=O)O)[nH]c3c2CCc2ccccc2-3)c1 : what is it?
Completion: 1.18

Prompt: Reported log10 of IC50 for NCCN[C@H]1CC[C@H](CC(=O)N[C@H]2Cc3cccc(C(=O)O)c3OB2O)CC1 : what is it?
Completion: 1.58

// next entry
Prompt: Reported log10 of IC50 for O=C(O)c1[nH]c2c(c1-c1cncc(F)c1)CCc1ccccc1-2 : what is it?
Completion: 0.61
